The measured values listed here are drawn from patent US10316039B2.

molecular target: P2X2/3 (Homo sapiens, UniProt P56373+Q9UBL9); assay: P2X2/3 FLIPR intracellular calcium assay; conditions: agonist at EC75, species (human or rat) not given
Sequence (Q9UBL9 whole entry): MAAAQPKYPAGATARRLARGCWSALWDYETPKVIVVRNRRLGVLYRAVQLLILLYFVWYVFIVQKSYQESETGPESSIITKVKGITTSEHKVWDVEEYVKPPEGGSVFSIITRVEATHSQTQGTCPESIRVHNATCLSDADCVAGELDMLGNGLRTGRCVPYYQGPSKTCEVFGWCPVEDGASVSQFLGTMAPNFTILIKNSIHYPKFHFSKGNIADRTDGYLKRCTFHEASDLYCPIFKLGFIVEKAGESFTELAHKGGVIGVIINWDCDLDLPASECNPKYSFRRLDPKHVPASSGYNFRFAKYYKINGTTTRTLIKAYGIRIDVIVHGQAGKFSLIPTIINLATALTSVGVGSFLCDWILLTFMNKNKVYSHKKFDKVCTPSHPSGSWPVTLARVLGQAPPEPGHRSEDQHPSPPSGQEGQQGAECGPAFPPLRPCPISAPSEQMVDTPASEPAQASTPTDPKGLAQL
Sequence (P56373 whole entry): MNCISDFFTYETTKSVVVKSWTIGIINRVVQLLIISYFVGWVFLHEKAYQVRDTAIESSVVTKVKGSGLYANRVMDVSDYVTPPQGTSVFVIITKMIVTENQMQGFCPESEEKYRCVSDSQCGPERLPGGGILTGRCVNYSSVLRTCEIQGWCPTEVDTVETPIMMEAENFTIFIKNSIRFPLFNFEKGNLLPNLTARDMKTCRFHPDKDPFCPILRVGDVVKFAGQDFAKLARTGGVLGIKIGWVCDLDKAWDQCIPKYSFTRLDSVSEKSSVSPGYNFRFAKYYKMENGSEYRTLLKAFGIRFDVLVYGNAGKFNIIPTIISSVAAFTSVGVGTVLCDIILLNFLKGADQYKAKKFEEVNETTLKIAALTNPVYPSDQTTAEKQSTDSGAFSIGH
For each record, write down the corresponding IC50.

Below, 3 compounds whose answers are already recorded.
{"COMPOUND": "Cc1ccc(-c2cnc3c(N4CCC(F)(F)CC4)cc(C(=O)N[C@H](c4nnc[nH]4)C(C)C)cn23)s1", "MEASUREMENT TARGET": "P2X2/3 (Homo sapiens, UniProt P56373+Q9UBL9)", "IC50": "100 to 1000 nM"}
{"COMPOUND": "CCc1nnnn1-c1cc(C(=O)NC(C)c2cnccn2)cn2c(-c3ccc(C)s3)cnc12 (stereo not drawn)", "MEASUREMENT TARGET": "P2X2/3 (Homo sapiens, UniProt P56373+Q9UBL9)", "IC50": "1000 to 10000 nM"}
{"COMPOUND": "CCCc1nnnn1-c1cc(C(=O)N[C@@H](C)c2nnc[nH]2)cn2c(-c3ccc(C)s3)cnc12", "MEASUREMENT TARGET": "P2X2/3 (Homo sapiens, UniProt P56373+Q9UBL9)", "IC50": "1 to 100 nM"}

Give me IC50 for each of these compounds, listed below.
1. Cc1ccccc1-c1cnc2c(N3CCC(C)CC3)cc(C(=O)N[C@@H](C)c3nnc[nH]3)cn12
2. Cc1ccc(-c2cnc3c(N4CCC(C)(C(N)=O)CC4)cc(C(=O)N[C@@H](C)c4nnc[nH]4)cn23)s1
3. CC[C@H](NC(=O)c1cc(-n2nncc2C(C)(C)C)c2ncc(-c3ccc(C)s3)n2c1)c1nnc[nH]1
4. Cc1ccc(CNC(=O)c2cc(-n3nncc3C)c3ncc(-c4ccc(C)s4)n3c2)cn1

1: 1000 to 10000 nM; 2: 1 to 100 nM; 3: 1 to 100 nM; 4: 1 to 100 nM
